# Assay details: Therapeutic study: hematological parameters
# Assay type: in vivo, Wistar strain albino rats
# Measurement conditions: HFD continued, day 60; unit assumed
Endpoint label: Eosinophil (%)
// note: answer is a bare numeric in %

QUERY: Bench note: what Eosinophil did CC(C)c1c(C(=O)Nc2ccccc2)c(-c2ccccc2)c(-c2ccc(F)cc2)n1CC[C@@H](O)C[C@@H](O)CC(=O)O show?
RESULT: 1.28

* * *

# Assay details: Prophylactic study: hematological parameters
# Type: in vivo, Wistar strain albino rats
# Measurement conditions: HFD+normal diet, day 15
Endpoint label: Eosinophil (%)
// note: answer is a bare numeric in %

QUERY: Bench note: what Eosinophil did CC(C)c1c(C(=O)Nc2ccccc2)c(-c2ccccc2)c(-c2ccc(F)cc2)n1CC[C@@H](O)C[C@@H](O)CC(=O)O show?
RESULT: 1.3

* * *

# Assay details: Therapeutic study: hematological parameters
# Type: in vivo, Wistar strain albino rats
# Measurement conditions: HFD discontinued, day 45; unit assumed
Endpoint label: Eosinophil (%)
// note: answer is a bare numeric in %

QUERY: Bench note: what Eosinophil did CC(C)c1c(C(=O)Nc2ccccc2)c(-c2ccccc2)c(-c2ccc(F)cc2)n1CC[C@@H](O)C[C@@H](O)CC(=O)O show?
RESULT: 1.25

* * *

# Assay details: Therapeutic study: hematological parameters
# Type: in vivo, Wistar strain albino rats
# Measurement conditions: HFD discontinued, day 45
Endpoint label: Platelet count

QUERY: Bench note: what Platelet count did CC(C)c1c(C(=O)Nc2ccccc2)c(-c2ccccc2)c(-c2ccc(F)cc2)n1CC[C@@H](O)C[C@@H](O)CC(=O)O show?
RESULT: 1070 10³/µL

* * *

# Assay details: Therapeutic study: hematological parameters
# Type: in vivo, Wistar strain albino rats
# Measurement conditions: HFD discontinued, day 60; unit assumed
Endpoint label: Eosinophil (%)
// note: answer is a bare numeric in %

QUERY: Bench note: what Eosinophil did CC(C)c1c(C(=O)Nc2ccccc2)c(-c2ccccc2)c(-c2ccc(F)cc2)n1CC[C@@H](O)C[C@@H](O)CC(=O)O [Statin, Atorvastatin] show?
RESULT: 1.24

* * *

# Assay details: Therapeutic study: hematological parameters
# Assay type: in vivo, Wistar strain albino rats
# Measurement conditions: HFD discontinued, day 60
Endpoint label: Monocyte (%)
// note: answer is a bare numeric in %

QUERY: Bench note: what Monocyte did CC(C)c1c(C(=O)Nc2ccccc2)c(-c2ccccc2)c(-c2ccc(F)cc2)n1CC[C@@H](O)C[C@@H](O)CC(=O)O show?
RESULT: 1.25

* * *

# Assay details: Prophylactic study: hematological parameters
# Assay type: in vivo, Wistar strain albino rats
# Measurement conditions: HFD+normal diet, day 45
# Experimental: Wistar strain albino rats of body weight ranging from 190-225 g were selected for the present study. The temperature and humidity were kept at optimum (22+2° C.; 40-70% and animals were exposed to natural chronological day night cycles. The experiments were carried out in conformity with the Institutional Animal Ethics Committee. The 6 groups were as follows: • 1. Normal Control • 2. 1.5-2 ml blood sample was taken from retino-orbital chamber in vials for biochemical estimations at every 15 days. […]
Endpoint label: Monocyte

QUERY: Bench note: what Monocyte did CC(C)c1c(C(=O)Nc2ccccc2)c(-c2ccccc2)c(-c2ccc(F)cc2)n1CC[C@@H](O)C[C@@H](O)CC(=O)O show?
RESULT: 1.4%

* * *

# Assay details: Therapeutic study: hematological parameters
# Type: in vivo, Wistar strain albino rats
# Measurement conditions: HFD continued, day 0
Endpoint label: Monocyte (%)
// note: answer is a bare numeric in %

QUERY: Bench note: what Monocyte did CC(C)c1c(C(=O)Nc2ccccc2)c(-c2ccccc2)c(-c2ccc(F)cc2)n1CC[C@@H](O)C[C@@H](O)CC(=O)O [Statin, Atorvastatin] show?
RESULT: 1.35

* * *

# Assay details: Prophylactic study: hematological parameters
# Assay type: in vivo, Wistar strain albino rats
# Measurement conditions: HFD+normal diet, day 90
Endpoint label: Platelet count

QUERY: Bench note: what Platelet count did CC(C)c1c(C(=O)Nc2ccccc2)c(-c2ccccc2)c(-c2ccc(F)cc2)n1CC[C@@H](O)C[C@@H](O)CC(=O)O show?
RESULT: 1070 10³/µL

* * *

# Assay details: Therapeutic study: hematological parameters
# Format: in vivo, Wistar strain albino rats
# Measurement conditions: HFD continued, day 30
Endpoint label: Platelet count

QUERY: Bench note: what Platelet count did CC(C)c1c(C(=O)Nc2ccccc2)c(-c2ccccc2)c(-c2ccc(F)cc2)n1CC[C@@H](O)C[C@@H](O)CC(=O)O [Statin, Atorvastatin] show?
RESULT: 1090 10³/µL

* * *

# Assay details: Therapeutic study: hematological parameters
# Type: in vivo, Wistar strain albino rats
# Measurement conditions: HFD discontinued, day 15; unit assumed
Endpoint label: Eosinophil (%)
// note: answer is a bare numeric in %

QUERY: Bench note: what Eosinophil did CC(C)c1c(C(=O)Nc2ccccc2)c(-c2ccccc2)c(-c2ccc(F)cc2)n1CC[C@@H](O)C[C@@H](O)CC(=O)O show?
RESULT: 1.25
